- MEASURED ON: T1, His-tagged CEACAM1 (human, UniProt P13688 35-428)
- T1 construct: 45 kDa SPR analyte; also called CEACAM1-HIS; CEACAM1 analyte
- T1 sequence: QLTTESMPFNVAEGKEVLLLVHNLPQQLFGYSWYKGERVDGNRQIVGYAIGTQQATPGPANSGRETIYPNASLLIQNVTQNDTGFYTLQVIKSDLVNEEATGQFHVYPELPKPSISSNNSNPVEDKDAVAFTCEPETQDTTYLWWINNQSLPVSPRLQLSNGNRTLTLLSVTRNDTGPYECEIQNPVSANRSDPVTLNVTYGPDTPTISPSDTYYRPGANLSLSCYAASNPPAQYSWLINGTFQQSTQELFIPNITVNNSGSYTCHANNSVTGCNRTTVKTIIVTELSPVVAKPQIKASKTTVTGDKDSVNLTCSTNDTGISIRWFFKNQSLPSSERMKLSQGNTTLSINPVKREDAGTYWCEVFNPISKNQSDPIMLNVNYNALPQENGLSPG
- TEST DESCRIPTION: SPR single-cycle, supernatant IgG captured
VALUE KIND: kon (M⁻¹ s⁻¹)
Numbers only here, please. The scale is M⁻¹ s⁻¹.

| BINDER | UNITS | kon |
| --- | --- | --- |
| CP09B03/CP08D02 (antibody, IgG4, V domains shown, IgG4 (S241P), kappa) VH: EVQLLESGGGLVQPGGSLRLSCAASGFTFNAHAISWVRQAPGKGLEWVATISSGGTYTYYPDSVKGRFTISRDNSKNTLYLQMNSLKAEDTAMYYCARHDFDYDAAWFAYWGQGTLVTVSS VL: EIVLTQSPATLSLSPGERATLSCRANSAVSYMYWYQQKPGQAPRPWIYLTSNRATGVPARFSGSGSGTDYTLTISSLEPEDFAVYYCQQWTSFPPTFGQGTKLEIK | M⁻¹ s⁻¹ | 210000 |
| CP09B03/CP08G09 (antibody, IgG4, V domains shown, IgG4 (S241P), kappa) VH: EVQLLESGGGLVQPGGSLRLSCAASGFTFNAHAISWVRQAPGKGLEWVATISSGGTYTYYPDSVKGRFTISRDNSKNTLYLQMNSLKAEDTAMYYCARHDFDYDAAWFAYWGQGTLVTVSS VL: EIVLTQSPATLSLSPGERATLSCRANSAVSYMYWYQQKPGQAPRPWIYLTSNRATGVPARFSGSGSGTDYTLTISSLEPEDFAVYYCQQWTAFPPTFGQGTKLEIK | M⁻¹ s⁻¹ | 130000 |

Attention now shifts to the item below.
stdin: Quick check: kon of CP09E05/CP08F05 (antibody, IgG4, V domains shown, IgG4 (S241P), kappa) VH: EVQLLESGGGLVQPGGSLRLSCAASGFIFSSHGMSWVRQAPGKGLEWVATISSGGTYTYYPDSVKGRFTISRDNSKNTLYLQMNSLKAEDTAMYYCARHGFDYDAAWFAYWGQGTLVTVSS VL: EIVLTQSPATLSLSPGERATLSCRANSAVSYMYWYQQKPGQAPRPWIYLTSNRATGVPARFSGSGSGTDYTLTISSLEPEDFAVYYCQQWTSNPPTFGQGTKLEIK ?
stdout: 140000
